- RUN_DESCRIPTION: soluble on expression in E. coli; label from the status in PepcDB or PDB records
TEST_READOUT: soluble on expression in E. coli

Take a look at these entries with their results.
{"SEQ_STRING": "MFKIKTIESLSDLTQLKKAYFDSSIVPLDGMWHFGFAPMAKHFGFYVNKNLVGFCCVNDDGYLLQYYLQPEFQLCSQELFTLISQQNSSVIGEVKGAFVSTAELNYQALCLDNSATFKVNSLMYQHNTKLADRNLEMIDMQIAGTEQLTAFVTFAAANIGAPEQWLTQYYGNLIERKELFGYWHKGKLLAAGECRLFDQYQTEYADLGMIVAQSNRGQGIAKKVLTFLTKHAATQGLTSICSTESNNVAAQKAIAHAGFTSAHRIVQFEFKHA", "soluble on expression in E. coli": "soluble"}
{"SEQ_STRING": "MAHHHHHHMTTAGQSDAFTRVSLHSVTALGKCPAPFSDPIAVKVVLEVFGCPPKHSIDVKFTWKPIWDFPVDQVLDEFEVGPLATVGKHELVLHSDPPDVAKIPDPTGPTALTIAFTYRGKQFLHIGYNAVVLCEGEMPDVFEDAAMLSRQLTQCFKKETTIAWDEDHEDVEEKTVINGKDNDISDVKEKDHNGHAAYDDEAKVPEGVSPTKKKARCEGSLSQ", "soluble on expression in E. coli": "soluble"}
{"SEQ_STRING": "TRIPGVRLMRAEQAYPRSPVFYEPRICILAQGQKIGFLGGETYRYDAERYLVMSVPLPFECETHASAAEPLLGVSVDVDIGTLKELLLQMEEAPGSDDDNELAPSAPMASVPLDAGMADAVMRLLGCLQSPLDSHILGPQLVREIIFRALRSEQGNAL", "soluble on expression in E. coli": "not soluble"}
{"SEQ_STRING": "MYELNICHLYPDLLNLYGDRGNIMALKMRCVWRGINVNVSNISIGDKFDAEAYDIIFLGGGQDYEQEIIQDDLLNQKGEEIRNAVKNDKVFLAICGGYQLLGSYYKTWDGKEIHFLNALDLWTIGGKERMIGNFVFECDFLKNDHYDGKIVGFENHSGRTYLGPGVKPLGKIIKGYGNNGEDGFEGAIYKNVYCSYSHGSLLPKNPALADHLISVALKQKYKDFVSLSGIDDEFENLAHDTTIKRIMG", "soluble on expression in E. coli": "soluble"}
{"SEQ_STRING": "MKKVSIIIPFKGQTEAELMLPLSSIYNQIGVDLSQLDIHLVNDGGKTIDLSKFDVLADRLEIHYHEIPNGGPGVARQYGIDNSISEYIMFIDADDVLYYVGALWPFYNASNQGHQMIRASYWEQIAGNPYTYTVHGNGDRKAAYGKWYKRSYIEMLGLRFMPDLPIYEDTYFVGLACELATDTCFLEEKVYMWLANPNSITRTVENKFNYQAHIYARENRYWFEMIRKWKPECLEHHHHHH", "soluble on expression in E. coli": "soluble"}

Query: May I ask what soluble on expression in E. coli has been recorded for MKVFLYDTNLILASRVRSLLSSQGFEISDKEEACAGVVNLESPKGLEVVKELKEKGKKVVGYCGHKNVPLIQKAKELGVDEVIPNSQVVTSLGEILKKLCS ?
Response: not soluble

Query: Cool, now QAPEQRSIRDGILLLHELGALTDDTQADGSPQLTQIGKDLANIPVDPRMARMLVEANTLGCLHSVMVIVSALTIQDVRERPLEFQAQADQAHARFKDTT
Response: not soluble
